- Test system: Erythrocyte
- PROCEDURE SUMMARY: Induction of hemolysis in Sprague-Dawley rat erythrocytes incubated at 37 degC for 60 mins by spectrophotometry
- Type: cell-based
- MEASUREMENT CONDITIONS: erythrocyte, 1 h
Non-standard residues stand in square brackets, D forms with d. Residues, ends and D or L forms follow the SMILES beside them. Nspe = C[C@H](NCC(=O)O)c1ccccc1; Nlys = NCCCCNCC(=O)O
RECORDED ENDPOINT: HD10 (µM)
Numbers only, in µM.

The cases that follow already have their HD10 on record.
# COMPOUND, NUMERIC READOUT
data = [
    ("C[C@H](c1ccccc1)N(CC(N)=O)C(=O)CN(C(=O)CN(CCCCN)C(=O)CN(C(=O)CN(C(=O)CN(CCCCN)C(=O)CN(C(=O)CN(C(=O)CNCCCCN)[C@H](C)c1ccccc1)[C@@H](C)c1ccccc1)[C@H](C)c1ccccc1)[C@@H](C)c1ccccc1)[C@H](C)c1ccccc1 (stereo in doubt)", 119.5),
    ("C[C@@H](c1ccccc1)N(CC(=O)N(CCCCN)CC(=O)N(CC(=O)N(CC(=O)N(CCCCN)CC(=O)N(CC(=O)N(CC(=O)N(CCCCN)CC(=O)N(CC(=O)N(CC(=O)N(CCCCN)CC(N)=O)[C@@H](C)c1ccccc1)[C@@H](C)c1ccccc1)[C@@H](C)c1ccccc1)[C@@H](C)c1ccccc1)[C@@H](C)c1ccccc1)[C@@H](C)c1ccccc1)C(=O)CN(C(=O)CNCCCCN)[C@@H](C)c1ccccc1 (H-[Nlys][Nspe][Nspe][Nlys][Nspe][Nspe][Nlys][Nspe][Nspe][Nlys][Nspe][Nspe][Nlys]-NH2)", 19.5),
]

Consider the record given below.
With Erythrocyte as the test system, C[C@@H](c1ccccc1)N(CC(N)=O)C(=O)CN(C(=O)CN(CCCCN)C(=O)CN(C(=O)CN(C(=O)CN(CCCCN)C(=O)CN(C(=O)CN(C(=O)CN(CCCCN)C(=O)CN(C(=O)CN(C(=O)CNCCCCN)[C@@H](C)c1ccccc1)[C@@H](C)c1ccccc1)[C@@H](C)c1ccccc1)[C@@H](C)c1ccccc1)[C@@H](C)c1ccccc1)[C@@H](C)c1ccccc1)[C@@H](C)c1ccccc1 (H-[Nlys][Nspe][Nspe][Nlys][Nspe][Nspe][Nlys][Nspe][Nspe][Nlys][Nspe][Nspe]-NH2) showed HD10 of 9.1

* * *

Can you tell me CC50 at 24 h for the items I'm about to list?
- PROCEDURE SUMMARY: Cytotoxicity against human LNCAP cells assessed as reduction in cell viability incubated for 24 hrs by MTS assay
- Assay type: cell-based
- MEASUREMENT CONDITIONS: read-out: LC50
Non-standard residues stand in square brackets, D forms with d. Residues, ends and D or L forms follow the SMILES beside them. Nspe = C[C@H](NCC(=O)O)c1ccccc1; Nlys = NCCCCNCC(=O)O
Give bare numbers, in µM.

# COMPOUND, CC50 at 24 h (µM)
measured = [
    ("C[C@@H](c1ccccc1)N(CC(N)=O)C(=O)CN(C(=O)CN(CCCCN)C(=O)CN(C(=O)CN(C(=O)CN(CCCCN)C(=O)CN(C(=O)CN(C(=O)CN(CCCCN)C(=O)CN(C(=O)CN(C(=O)CNCCCCN)[C@@H](C)c1ccccc1)[C@@H](C)c1ccccc1)[C@@H](C)c1ccccc1)[C@@H](C)c1ccccc1)[C@@H](C)c1ccccc1)[C@@H](C)c1ccccc1)[C@@H](C)c1ccccc1 (H-[Nlys][Nspe][Nspe][Nlys][Nspe][Nspe][Nlys][Nspe][Nspe][Nlys][Nspe][Nspe]-NH2)", 5),
]

Consider the record given below.
Entry C[C@@H](c1ccc(Cl)cc1)N(CC(N)=O)C(=O)CN(C(=O)CN(CCCCN)C(=O)CN(C(=O)CN(C(=O)CN(CCCCN)C(=O)CN(C(=O)CN(C(=O)CN(CCCCN)C(=O)CN(C(=O)CN(C(=O)CNCCCCN)[C@@H](C)c1ccc(Cl)cc1)[C@@H](C)c1ccc(Cl)cc1)[C@@H](C)c1ccc(Cl)cc1)[C@@H](C)c1ccc(Cl)cc1)[C@@H](C)c1ccc(Cl)cc1)[C@@H](C)c1ccc(Cl)cc1)[C@@H](C)c1ccc(Cl)cc1 ; CC50 at 24 h = 10
